Target: T1, Spy_(29-127) (UniProt P77754 52-150)
T1 construct: Spy chaperone, residues 29-127; source: E. coli BL21 (DE3), purified (Ni-NTA, cation exchange, SEC); not shown: His6, N-terminal, cleaved; SUMO, N-terminal, cleaved
T1 sequence (looked up): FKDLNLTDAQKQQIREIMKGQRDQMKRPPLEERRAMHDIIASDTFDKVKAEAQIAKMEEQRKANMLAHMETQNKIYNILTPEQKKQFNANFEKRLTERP
Experiment: BLI; Octet RED96; client biotinylated and loaded on streptavidin sensors; Spy or Spy variant in solution at 0.25, 0.5, 1, 1.5 and 2 μM; 40 mM HEPES, 150 mM NaCl, pH 7.5; Kd calculated as koff/kon
Details: both partners purified
pKd: −log10 of the molar value.

BINDER: Im7 H40W L53A I54A (natural protein, biotin (EZ-link NHS-biotin, 1:1 molar ratio of biotin to protein), Im7 (colicin E7 immunity protein) with H40W L53A I54A; Spy was made with an N-terminal His6-SUMO tag that was cleaved; also called Im7AAW; partially folded client; source: purified by a similar procedure to Spy) MELKNSISDYTEAEFVQLLKEIEKENVAATDDVLDVLLEWFVKITEHPDGTDAAYYPSDNRDDSPEGIVKEIKEWRAANGKPGFKQG
pKd: 6.51
